Data origin: patent US20230129258A1

- tested_target: CD137 on Jurkat reporter cells (Promega kit CS196005) (UniProt Q07011 24-255, limits assumed)
- Sequence (Q07011 24-255 limits assumed): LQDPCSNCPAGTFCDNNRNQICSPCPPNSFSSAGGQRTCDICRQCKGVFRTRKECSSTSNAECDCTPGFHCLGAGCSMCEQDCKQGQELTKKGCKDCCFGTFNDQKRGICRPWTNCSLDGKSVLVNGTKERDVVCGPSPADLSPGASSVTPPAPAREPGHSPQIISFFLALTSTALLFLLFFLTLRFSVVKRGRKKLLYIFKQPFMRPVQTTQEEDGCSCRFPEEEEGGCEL
- method_description: cell-based or functional assay
Starred links: 1 amine or outer side, 2 acyl side, 3 side chain; linkers in the order of their positions; H or OH if unused. Positions of bridges follow the written chain, without caps; N, C: chain ends. Non-standard residues stand in square brackets, D forms with d. Chains are numbered I, II in the order given. No end group written: not given here. *: point of attachment. TATA = O=C(CC[*:1])N1CN(C(=O)CC[*:2])CN(C(=O)CC[*:3])C1; Dip = N[C@H](C(=O)O)C(c1ccccc1)c1ccccc1; Hyp = O=C(O)[C@@H]1C[C@@H](O)CN1; tBuAla = CC(C)(C)C[C@H](N)C(=O)O; Cba = N[C@@H](CC1CCC1)C(=O)O; dK(PYA) = not defined here; Nle = CCCC[C@H](N)C(=O)O; Pent4ynoyl = C#CCCC(=O)*; Mpa = O=C(O)CCS
Emax (fold induction over background), PC3 under 40 fold over background gets criterion met, anything at or over 40 fold over background gets criterion not met.

Reference set (4 entries):
binder: BCY13343 (linker I:1-I:8-I:15, II:1-II:8-II:15 via TATA; not fully specified (some residues); reading uncertain; also: 1:2 complex: two copies of chain 2 (BCY12353) on the branched linker, linker at chain B 5 to a chain's N-terminus via N-(acid-PEG3)-N-bis(PEG3-azide)) peptide 1: C[Hyp]LVNPLCL[Dip]PDWTC peptide 2: [Mpa][tBuAla]PE[dK(PYA)]PYCFADPY[Nle]C
group_label: criterion not met
//
binder: BCY13341 (linker I:1-I:8-I:15, II:1-II:8-II:15 via TATA; reading uncertain; also: linker at chain B 5 to a chain's N-terminus via N-(acid-PEG3)-N-bis(PEG3-azide)) peptide 1: C[Hyp][Cba]VNPLCL[Dip]P[dD]WTC[dA] peptide 2: [Mpa][tBuAla]PE[dK(PYA)]PYCFADPY[Nle]C
group_label: criterion not met
//
binder: BCY13281 (not fully specified; BCY8928: Ac-(SEQ ID NO: 11)-A; TATA; linker at dLys(PYA)4; BCY13127: [dA]-[dA]-D-(SEQ ID NO: 35); TATA; linker at N-terminus) peptide 1: AADCXLVNPLCLEPDWTC peptide 2: CXPEXPYCFADPYXCA
group_label: criterion met
//
binder: BCY13274 (linker I:1-I:8-I:15 via TATA; linker II:1-II:8-II:15 via TATA (inferred); not fully specified (bridges); also: linker N-(acid-PEG3)-N-bis(PEG3-azide) on C-terminal dK of chain 1, joins two chain 2 copies via PYA triazoles) peptide 1: Ac-C[Hyp]LVNPLCL[Dip]P[dD]WTC[dK] peptide 2: Ac-C[tBuAla]PE[dK](Pent4ynoyl)PYCFADPY[Nle]CA
group_label: criterion not met

# ---- query binder ----
Query: Confirm or reject: Emax (fold induction over background), PC3 of BCY13280 (linker I:4-I:11-I:18, II:1-II:8-II:15 via TATA (inferred); not fully specified (N-terminus, bridges); also: 1:2 complex: two copies of chain 2 (BCY8928) on the branched linker) peptide 1: [dA]EDC[Hyp]LVNPLCLEP[dD]WTC peptide 2: Ac-C[tBuAla]PE[dK](Pent4ynoyl)PYCFADPY[Nle]CA lies strictly below 40 fold over background
Reply: criterion met
